Entries and their measured Papp follow.
Experiment: in vitro
Conditions: PAMPA

MOLECULE | DISPLAY_UNIT | Papp
COc1ccc(S(=O)(=O)N2CCOCC2)cc1C(=O)N(Cc1ccc(F)cc1)Cc1ccc(F)cc1 | ×10⁻⁶ cm/s | 4.14
COc1ccc(N2CCN(C)CC2)cc1S(=O)(=O)N(Cc1ccc(F)cc1)Cc1ccc(F)cc1 | ×10⁻⁶ cm/s | 0.71
COc1cc2c(cc1S(=O)(=O)N(Cc1ccccc1)Cc1ccccc1)S(=O)(=O)NCN2 | ×10⁻⁶ cm/s | 0.38
CCN(Cc1ccc(F)cc1)S(=O)(=O)c1cc(C(=O)N2CCOCC2)ccc1OC | ×10⁻⁶ cm/s | 15.5
CCCCC1Nc2cc(Cl)c(S(N)(=O)=O)cc2S(=O)(=O)N1Cc1ccccc1 (stereo not shown) | ×10⁻⁶ cm/s | 1.39
COc1ccc(OC)c(S(=O)(=O)N(Cc2ccc(F)cc2)Cc2ccc(C#N)cc2)c1 | ×10⁻⁶ cm/s | 3.57
O=S(=O)(c1ccccn1)N(Cc1ccccc1)Cc1ccccc1 | ×10⁻⁶ cm/s | 9.55
COc1ccc(C#N)cc1S(=O)(=O)N(Cc1ccc(F)cc1)C1CCOCC1 | ×10⁻⁶ cm/s | 12.7
O=S1(=O)NCNc2cc(Cl)c(S(=O)(=O)N(Cc3ccccc3)Cc3ccccc3)cc21 | ×10⁻⁶ cm/s | 0.04
COc1ccc(S(C)(=O)=O)cc1S(=O)(=O)N(Cc1ccccc1)Cc1cc(C(F)(F)F)nn1C | ×10⁻⁶ cm/s | 7.6
COc1ccc(CN2CCC(F)(F)CC2)cc1S(=O)(=O)N(Cc1ccc(F)cc1)Cc1ccc(F)cc1 | ×10⁻⁶ cm/s | 0.4
Nc1cc(Cl)c(S(N)(=O)=O)cc1S(=O)(=O)N(Cc1ccccc1)Cc1ccccc1 | ×10⁻⁶ cm/s | 3.37
COc1ccc(Cl)cc1S(=O)(=O)N(Cc1ccccc1)C(CO)c1ccc(F)cc1 (stereo not shown) | ×10⁻⁶ cm/s | 3.4
CNCCOc1ccc(F)cc1S(=O)(=O)N(Cc1ccc(F)cc1)Cc1ccc(F)cc1 | ×10⁻⁶ cm/s | 0.43
COc1ccc(CN(Cc2ccc(F)cc2)S(=O)(=O)c2cc(F)ccc2OCCN(C)C)cc1 | ×10⁻⁶ cm/s | 0.29
O=S(=O)(NCc1ccccc1)c1cc2c(cc1Cl)NCN(Cc1ccccc1)S2(=O)=O | ×10⁻⁶ cm/s | 1.61

====

Assay: in vitro
Settings: human, HFF-1 cells

COMPOUND | CC50
C[S+]([O-])c1c(Cl)ccc2c1S(=O)(=O)N(Cc1ccccc1)CCO2 (centres unmarked) | > 64 µM
O=S1(=O)c2ccccc2[C@H](O)[C@@H](Cc2ccccc2)N1Cc1ccccc1 | > 64 µM
O=S1(=O)c2ccccc2[C@H](O)[C@H](Cc2ccccc2)N1Cc1ccccc1 | 27 µM
CCCN(Cc1ccc(F)cc1)S(=O)(=O)c1cc([S+](C)[O-])ccc1OC (centres unmarked) | > 64 µM
COCCN(Cc1ccccc1)S(=O)(=O)c1c(OC)ccc(Cl)c1[S+](C)[O-] (centres unmarked) | > 64 µM
COc1ccc([S+](C)[O-])cc1S(=O)(=O)N(Cc1ccccc1)Cc1ccccc1 (centres unmarked) | > 64 µM
COc1ccc(S(N)(=O)=O)cc1S(=O)(=O)N(Cc1ccccc1)Cc1ccccc1 | 22.2 µM
COCCN(Cc1ccccc1)S(=O)(=O)c1c(OC)ccc(Cl)c1S(C)(=O)=O | > 64 µM

====

Assay: in vitro
Conditions: mouse, microsomes, pH 7.4, MLM CLint, mouse liver microsomes
Entries and their measured microsomal CLint at 0.5 μM follow.
ENDPOINT: microsomal CLint at 0.5 μM

COMPOUND | ENDPOINT | TEST_VALUE
COc1ccc(OC)c(S(=O)(=O)N(Cc2ncccn2)Cc2ncccn2)c1 [DNDI0003370115] | microsomal CLint at 0.5 μM | 67 µL/min/mg
O=S(=O)(NCc1ccc(F)cc1)c1cccnc1NCCN1CCOCC1 [DNDI0003369121] | microsomal CLint at 0.5 μM | 1950 µL/min/mg
COc1ccc(C(N)=O)cc1S(=O)(=O)N(Cc1ccccc1)Cc1ccccc1 [DNDI0003366135] | microsomal CLint at 0.5 μM | 1670 µL/min/mg
CCN(Cc1ccccc1)S(=O)(=O)c1cc(OC)ccc1OC [DNDI0003365407] | microsomal CLint at 0.5 μM | 3500 µL/min/mg
COc1ccc(Cl)cc1S(=O)(=O)N(CC(=O)c1ccc(F)cc1)Cc1ccccc1 [DNDI0003371155] | microsomal CLint at 0.5 μM | 1900 µL/min/mg

====

System: MRC-5SV2 cells
Assay: Cytotoxicity assay on MRC-5SV2 cells (resazurin)
ENDPOINT: CC50

COMPOUND | ENDPOINT | TEST_VALUE
COc1ccc(S(=O)(=O)N(C)C)cc1NC(=O)C1CCCc2ccccc21 (stereo not shown) | CC50 | > 32 µM
CCN(Cc1ccccc1)S(=O)(=O)c1cc(OC)c(C)cc1OC | CC50 | > 32 µM
COc1ccc(OC)c(S(=O)(=O)N(Cc2ccccc2)Cc2ccccc2)c1 | CC50 | 6.41 µM
COc1ccc(S(=O)(=O)N(Cc2cccc(F)c2)Cc2cccc(F)c2)cc1OC | CC50 | > 32 µM

====

System: L. infantum MHOM/MA/67/ITMAP263 axenic Promastigotes
Assay: microbe, parasite or virus in culture
Conditions: Leishmania infantum, read-out: L. infantum MHOM/MA/67/ITMAP263 axenic Promastigotes IC50
ENDPOINT: IC50 (µM)

COMPOUND | ENDPOINT | RESULT_OPERATOR | TEST_VALUE
COc1ccc(CN2CCCC2)cc1S(=O)(=O)N(Cc1ccc(F)cc1)Cc1ccc(F)cc1 [DNDI0003370114] | IC50 | = | 0.72
COc1ccc(OC)c(S(=O)(=O)N(Cc2ncccn2)Cc2ncccn2)c1 [DNDI0003370115] | IC50 | > | 64
O=C1c2ccccc2S(=O)(=O)N(Cc2ccccc2)C1Cc1ccccc1 (centres unmarked) [DNDI0003370098] | IC50 | > | 64
COc1ccc(OC)c(S(=O)(=O)N(Cc2ccc(F)cc2)c2ccc(F)cn2)c1 [DNDI0003370085] | IC50 | = | 33
COc1ccc(Cl)cc1S(=O)(=O)N(Cc1ccccc1)C(Cc1ccccc1)C(N)=O (centres unmarked) [DNDI0003370116] | IC50 | = | 30.4

====

Test system: Leishmania infantum MHOM/MA(BE)/67/ITMAP263 intracellular amastigotes
Experiment: microbe, parasite or virus in culture
Conditions: Macrophage, in Mus musculus, read-out: L. infantum MHOM/MA(BE)/67/ITMAP263 intracellular amastigotes IC50, intracellular amastigotes
pIC50: −log10 of the molar value.
// condition not met strictly below 5 in pIC50; condition met otherwise

COMPOUND | ASSAY_TARGET | CATEGORY_LABEL
O=S1(=O)c2ccccc2OCC(Cc2ccccc2)N1Cc1ccccc1 (centres unmarked) [DNDI0003370081] | Leishmania infantum MHOM/MA(BE)/67/ITMAP263 intracellular amastigotes | condition not met
COc1ccc(S(N)(=O)=O)cc1S(=O)(=O)N(Cc1ccccc1)Cc1ccccc1 [DNDI0003578385] | Leishmania infantum MHOM/MA(BE)/67/ITMAP263 intracellular amastigotes | condition met
COc1ccc(CN2CCOCC2)cc1S(=O)(=O)N(Cc1ccc(F)cc1)Cc1ccc(F)cc1 [DNDI0003370082] | Leishmania infantum MHOM/MA(BE)/67/ITMAP263 intracellular amastigotes | condition met
COc1ccc(OC)c(S(=O)(=O)N(Cc2ccccc2)C2CCN(C(C)=O)CC2)c1 [DNDI0003366132] | Leishmania infantum MHOM/MA(BE)/67/ITMAP263 intracellular amastigotes | condition not met
COc1ccc(CN2CCCC2)cc1S(=O)(=O)N(Cc1ccc(F)cc1)Cc1ccc(F)cc1 [DNDI0003370114] | Leishmania infantum MHOM/MA(BE)/67/ITMAP263 intracellular amastigotes | condition met
CNC(=O)c1ccc(OC)c(S(=O)(=O)N(Cc2ccccc2)Cc2ccccc2)c1 [DNDI0003368298] | Leishmania infantum MHOM/MA(BE)/67/ITMAP263 intracellular amastigotes | condition met

====

Test system: Leishmania infantum MHOM/MA(BE)/67/ITMAP263 intracellular amastigotes
Test: microbe, parasite or virus in culture
Settings: Macrophage, in Mus musculus, read-out: L. Inf. pIC50, from L. infantum intracellular amastigote IC50 (converted)

COMPOUND | RESULT_OPERATOR | IC50 / µM
CC[C@H](Cc1ccccc1)S(=O)(=O)c1ccccc1OC | = | 34.7
COc1ccc(C(=O)N2CCOCC2)cc1S(=O)(=O)N(Cc1ccc(C(F)(F)F)nc1)CC(C)(C)C | = | 45.7
Nc1cc(Cl)c(S(N)(=O)=O)cc1S(=O)(=O)N(Cc1ccccc1)Cc1ccccc1 | = | 35.5
COc1ccc(CN(Cc2ccc(F)cc2)S(=O)(=O)c2cc(C#N)ccc2OC)cc1 | = | 2.95
COc1ccc(C(N)=O)cc1S(=O)(=O)N(Cc1ccccc1)Cc1ccccc1 | = | 7.41
CN(C)CCOc1ccc(F)cc1S(=O)(=O)N(Cc1ccc(F)cc1)Cc1ccc(F)cc1 | = | 2.19
COC(=O)C(Cc1ccccc1)NS(=O)(=O)c1ccccc1Br (stereo not shown) | > | 64
COCCN(Cc1ccccc1)S(=O)(=O)c1cc(OC)ccc1OC | = | 2.09
CNCCOc1ccc(F)cc1S(=O)(=O)N(Cc1ccc(F)cc1)Cc1ccc(F)cc1 | = | 2.4
O=S(=O)(NCc1ccc(F)cc1)c1cccnc1NCCN1CCOCC1 | > | 64
CN(C)c1ncccc1S(=O)(=O)N(Cc1ccc(F)cc1)Cc1ccc(F)cc1 | = | 6.03
O=S(=O)(c1ccccn1)N(Cc1ccccc1)Cc1ccccc1 | = | 16.2
COc1ccc(C(=O)N(C)CCO)cc1S(=O)(=O)N(Cc1ccc(F)cc1)Cc1ccc(F)cc1 | = | 2.09
COc1ccc(Cl)cc1S(=O)(=O)N(Cc1ccccc1)Cc1ccccc1 | = | 1.38
COc1ccc(C#N)cc1S(=O)(=O)N(Cc1ccccc1)Cc1cnc(C(F)(F)F)nc1 | = | 3.89
CN(C)CCN(Cc1ccccc1)S(=O)(=O)c1ccc(N2C(=O)CCC2=O)cc1 | > | 64
O=C(CN(Cc1ccccc1)S(=O)(=O)c1cc(F)ccc1F)c1ccc(F)cc1 | > | 64
COc1ccc(C#N)cc1S(=O)(=O)N(Cc1ccc(F)cc1)Cc1ccc(C#N)cc1 | = | 33.1
COc1ccc(OC)c(S(=O)(=O)N(C)Cc2ccc(F)cc2)c1 | = | 11.7
COc1ccc(Cl)cc1S(=O)(=O)N(Cc1ccccc1)C1COC(=O)OC1 | = | 17
COc1ccc(-c2nc(C)no2)cc1S(=O)(=O)N(Cc1ccc(F)cc1)Cc1ccc(F)cc1 | = | 5.62
O=S(=O)(NC(CO)Cc1ccccc1)c1ccccc1Br (stereo not shown) | > | 64
CCN(Cc1ccccc1)S(=O)(=O)c1cc(F)ccc1F | = | 33.9
O=S(=O)(c1ccccc1OC(F)(F)F)N(Cc1ccccc1)Cc1ccccc1 | = | 1.07
COc1ccc(C(=O)N2CCN(C)CC2)cc1S(=O)(=O)N(Cc1ccc(F)cc1)Cc1ccc(F)cc1 | = | 0.537
COc1ccc(C(=O)N2CCOCC2)cc1S(=O)(=O)N(Cc1ccc(F)cc1)Cc1ccc(F)cc1 | = | 1.02
COc1ccc(C(=O)NCCO)cc1S(=O)(=O)N(Cc1ccc(F)cc1)Cc1ccc(F)cc1 | = | 2.51
O=S1(=O)c2cc(F)ccc2OCCN1Cc1ccccc1 | > | 64
COc1ccc(OC)c(S(=O)(=O)N(Cc2ccccc2)C2CCNCC2)c1 | = | 27.5
COc1ccc(CN(Cc2ccc(F)cc2)S(=O)(=O)c2cc(F)ccc2OCC[N+](C)(C)CC(=O)O)cc1 | > | 64
CCN(Cc1ccc(F)cc1)S(=O)(=O)c1cc(C(=O)N2CCOCC2)ccc1OC | = | 20.9
O=S(=O)(c1cc(F)ccc1F)N(CCO)Cc1ccccc1 | > | 64
COc1ccc(Cl)cc1S(=O)(=O)N(Cc1ccccc1)C(CO)c1ccc(F)cc1 (stereo not shown) | = | 1.7
COc1ccc(C#N)cc1S(=O)(=O)N(Cc1ccccc1)Cc1ccccc1 | = | 0.437

Reference source for all entries: paper PMC8126888
